Value source: PubChem BioAssay (NCI)

System: U251 CNS
Assay: NCI tumour cell line growth inhibition, 48 h
Task for the reader: assign each of the following molecules its reported TGI.

Past entries and their recorded results:
Molecule	TGI
COC1CC(OC2C(C)OC(OC3C(C)OC(OC4C(C)OC(O[C@H]5CC[C@@]6(C)C(=CC[C@]7(O)[C@@H]6C[C@@H](OC(=O)/C=C/c6ccccc6)[C@@]6(C)[C@]7(O)CC[C@@]6(O)C(C)=O)C5)CC4OC)CC3OC)CC2OC)OC(C)C1O (stereo partly specified)	> 12.5 µM
CN(C(=O)c1ccccc1)C1CCCC(=O)CC1 (stereo unspecified)	> 100 µM
COc1ccc(/C=C/C(=O)c2cccc(B(O)O)c2)cc1O	13.2 µM
Nc1nc2c(ncn2CC2CCC(CO)C2)c(=O)[nH]1 (stereo unspecified)	> 100 µM
CN=C(NN)NS(=O)(=O)c1cc(C)c(Cl)cc1S	> 100 µM

For each of the molecules below, state TGI.
1. COc1ccc(OC)c(N2C(=O)/C(=C\c3ccccc3)SC2c2cc(OC)c(OC)c(OC)c2)c1 (stereo unspecified)
2. CN(C(=O)CC(=O)CP(=O)(c1ccccc1)c1ccccc1)c1ccccc1
3. NC(=O)c1cccc(N2Cc3ccccc3OC3=C2C(=O)c2c(O)ccc(O)c2C3=O)c1
4. Nc1ccn(C2OC(CO)C3[O][Sn]([c]4ccccc4)([c]4ccccc4)[O]C32)c(=O)n1 (stereo unspecified)
5. CCCCCCC1NN(C(C)=O)C(CCCCCC)NN1C(C)=O (stereo unspecified)

> 100 µM
> 100 µM
4.59 µM
22.8 µM
> 100 µM

For each of the molecules below, state TGI.
1. O=C1CCC(O)=C1N=Nc1cc(Cl)cc(Cl)c1
2. CCOC(=O)C(NC(=O)CC(C)C)(NC(C)C)C(F)(F)F (stereo unspecified)
3. COc1cc(/C=N/c2nncs2)ccc1O
4. Cn1cc(NC(=O)[C@H]2CCC(N)=N2)cc1C(=O)NCCC(=N)N
5. CCC12CCCN(Cc3ccccc3)C1c1c(n(C)c3ccccc13)[C@H](C(=O)OC)C2 (stereo partly specified)
6. C/C(O)=C/c1nc2ccccc2[nH]1

> 100 µM
> 100 µM
> 100 µM
> 100 µM
> 239 µM
> 100 µM

For each of the molecules below, state TGI.
1. CCCCCCNC(=O)Nc1ccc2cc3ccc(NC(=O)NCCCCCC)cc3nc2c1
2. CC(C)(N=NC(C)(C)C(=N)N)C(=N)N

1: 1.29 µM; 2: > 100 µM

For each of the molecules below, state TGI.
1. O=c1[nH]c(=S)[nH]c2c1C(c1ccc(Cl)cc1)c1c([nH]c(=S)[nH]c1=O)O2
2. CC(=O)Oc1ccc(O)c2c1CCCC2
3. O=C(O)CCCn1c(SCc2c(Cl)cccc2Cl)nc2ccsc2c1=O
4. CC1CN1C1=CC(=O)c2c(c(CO)cn2C)C1=O (stereo unspecified)
5. O=Cc1cc2c(s1)C(=O)c1sccc1C2=O
6. Cn1cc(C2=C(c3cn(CCSC(=N)N)c4ccccc34)C(=O)NC2=O)c2ccccc21

1: > 100 µM; 2: > 100 µM; 3: > 100 µM; 4: 0.835 µM; 5: 0.748 µM; 6: 6.32 µM

For each of the molecules below, state TGI.
1. CC(C)(C)OC(=O)Nc1nnc(S(N)(=O)=O)s1
2. CCN(CC)CCOc1ccc(/C=C2\CC3C4CC=C5C[C@@H](N6CCCC6)CC[C@]5(C)C4CC[C@]3(C)[C@H]2OC(C)=O)cc1OC (stereo partly specified)
3. Nc1cc2c(nc3c4ccccc4c(N)cc3[n+]2-c2cccc3ccccc23)c2ccccc12 (tested in a mixture with another compound)
4. CC(=O)N=C1C=C(NC(C)=O)C(=O)c2ccccc21
5. CCCc1cc(=O)oc2c3c(c4c(c12)OC(C)(C)CC4)O[C@H](C)[C@@H](C)[C@H]3O
6. O=C1OCC2=C1C(c1cccc(Cl)c1)c1cc3c(cc1N2CCO)OCO3 (stereo unspecified)
7. Clc1ccc(C2c3ccccc3-c3nccn32)c(Cl)c1 (stereo unspecified)

1: > 100 µM; 2: 2.44 µM; 3: 2.61 µM; 4: 10.7 µM; 5: 32.2 µM; 6: 17.7 µM; 7: 26.2 µM

For each of the molecules below, state TGI.
1. c1cc(-c2ccsc2-c2ccsc2)cs1
2. Cn1ccnc1Sc1ccc(/C=N/NC(=O)c2ccccc2[N+](=O)[O-])cc1[N+](=O)[O-]
3. Cc1cc(C)c(OC(=O)Nc2cccc3ccccc23)c(-c2ccccc2)c1
4. O=C(CC1(O)C(=O)Nc2c(Cl)cc(Cl)cc21)c1ccco1 (stereo unspecified)
5. O=C(CCN1CCCC1)CC(c1ccccc1)c1c(O)c2ccccc2oc1=O (stereo unspecified)

> 100 µM
> 100 µM
> 100 µM
> 100 µM
> 100 µM

For each of the molecules below, state TGI.
1. Cc1cccc(C)c1NC(=O)/C(Cc1nc2ccc([N+](=O)[O-])cc2[nH]c1=O)=N\NC(N)=O
2. Nc1nc2c(nc(N)n2Cc2ccccc2)c(=O)[nH]1

1. > 100 µM
2. > 100 µM

For each of the molecules below, state TGI.
1. CC(=O)SSC1(Cl)C(C)(C)C(Cl)(SSC(C)=O)C1(C)C (stereo unspecified)
2. Cn1cc(C2=C(c3cn(CCCO)c4ccccc34)C(=O)NC2=O)c2ccccc21
3. Cc1ccc(C2=C(c3ccc(C)cc3)C3(c4ccc(C)cc4)[C@@H](C#N)[C@H](C#N)C2(c2ccc(C)cc2)S3=O)cc1 (stereo partly specified)

> 100 µM
19.3 µM
> 100 µM
